Measured P50 (Torr) Hb + compound accompanies every entry in the list below.
- assayed_system: murine free Hb (Mus musculus, UniProt P01942+P02088)
- Sequence (P01942 2-142 limits assumed): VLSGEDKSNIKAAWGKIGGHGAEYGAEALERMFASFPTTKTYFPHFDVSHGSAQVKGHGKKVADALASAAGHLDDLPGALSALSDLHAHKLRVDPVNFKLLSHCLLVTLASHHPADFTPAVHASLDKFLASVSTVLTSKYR
- Sequence (P02088 2-147 limits assumed): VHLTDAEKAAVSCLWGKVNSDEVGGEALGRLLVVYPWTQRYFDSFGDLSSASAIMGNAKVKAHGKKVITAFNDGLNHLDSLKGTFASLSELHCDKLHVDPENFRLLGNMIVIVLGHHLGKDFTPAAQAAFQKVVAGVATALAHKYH
- test_summary: P50 of murine free Hb after incubation with compound (HEMOX analyzer)
- Format: biochemical
- conditions: murine free Hb; compound solution 60 mM
The reply should be a number in Torr, with the unit left off.

Answered examples (3):
molecule	result_type	number
O=P1(O)OP(=O)(O)O[C@H]2[C@H](O1)[C@@H]1OP(=O)(O)OP(=O)(O)O[C@@H]1[C@H]1OP(=O)(O)OP(=O)(O)O[C@H]21.c1ccncc1.c1ccncc1.c1ccncc1.c1ccncc1.c1ccncc1.c1ccncc1 (racemic) [Compound 4, pyridinium salt of ITPP]	P50 (Torr) Hb + compound	50.0
C1CNCCN1.C1CNCCN1.C1CNCCN1.O=P1(O)OP(=O)(O)O[C@H]2[C@H](O1)[C@@H]1OP(=O)(O)OP(=O)(O)O[C@@H]1[C@H]1OP(=O)(O)OP(=O)(O)O[C@H]21 (racemic) [Compound 14, tripiperazinium salt of ITPP]	P50 (Torr) Hb + compound	82.9
CN(C)C1CCCCC1.CN(C)C1CCCCC1.CN(C)C1CCCCC1.CN(C)C1CCCCC1.CN(C)C1CCCCC1.CN(C)C1CCCCC1.O=P1(O)OP(=O)(O)O[C@H]2[C@H](O1)[C@@H]1OP(=O)(O)OP(=O)(O)O[C@@H]1[C@H]1OP(=O)(O)OP(=O)(O)O[C@H]21 (racemic)	P50 (Torr) Hb + compound	45.1

P50 (Torr) Hb + compound for murine free Hb (Mus musculus, UniProt P01942+P02088) with input NC1CCCCCCC1.NC1CCCCCCC1.NC1CCCCCCC1.NC1CCCCCCC1.NC1CCCCCCC1.NC1CCCCCCC1.O=P1(O)OP(=O)(O)O[C@H]2[C@H](O1)[C@@H]1OP(=O)(O)OP(=O)(O)O[C@@H]1[C@H]1OP(=O)(O)OP(=O)(O)O[C@H]21 (racemic) [Compound 12, cyclooctyl ammonium salt of ITPP] equals 30.6

* * *

- assayed_system: murine free Hb (Mus musculus, UniProt P01942+P02088)
- test_summary: P50 of murine free Hb after incubation with compound (HEMOX analyzer)
- Type: biochemical
- conditions: murine free Hb; compound solution 60 mM
result_type: P50 increase (%) + SD
The reply should be a number in %, with the unit left off.

compound	assayed_system	unit_spec	P50 increase (%) + SD
C1CNCCN1.C1CNCCN1.C1CNCCN1.O=P1(O)OP(=O)(O)O[C@H]2[C@H](O1)[C@@H]1OP(=O)(O)OP(=O)(O)O[C@@H]1[C@H]1OP(=O)(O)OP(=O)(O)O[C@H]21 (racemic) [Compound 14, tripiperazinium salt of ITPP]	murine free Hb (Mus musculus, UniProt P01942+P02088)	%	254

P50 increase (%) + SD for murine free Hb (Mus musculus, UniProt P01942+P02088) with input CN(C)C1CCCCC1.CN(C)C1CCCCC1.CN(C)C1CCCCC1.CN(C)C1CCCCC1.CN(C)C1CCCCC1.CN(C)C1CCCCC1.O=P1(O)OP(=O)(O)O[C@H]2[C@H](O1)[C@@H]1OP(=O)(O)OP(=O)(O)O[C@@H]1[C@H]1OP(=O)(O)OP(=O)(O)O[C@H]21 (racemic) [Compound 7] equals 81

P50 increase (%) + SD for murine free Hb (Mus musculus, UniProt P01942+P02088) with input O=P1([O-])OP(=O)([O-])O[C@H]2[C@H](O1)[C@@H]1OP(=O)([O-])OP(=O)([O-])O[C@@H]1[C@H]1OP(=O)([O-])OP(=O)([O-])O[C@H]21.[Ca+2].[Ca+2].[Ca+2] (racemic) [Compound 15] equals 130
